In this section, each of the compounds is paired with its reported log10(GI50).
System: Molt4
Metric name: log10(GI50) (log10 of the value in nM)

INSERT INTO results (compound, metric_name, recorded_number) VALUES
  ('C=CC(=O)Nc1ncnc2c1c(-c1ccc3ccccc3c1)nn2C(C)(C)C [Compound 6]', 'log10(GI50)', 2.85),
  ('C=CC(=O)N(C(=O)C=C)c1ncnc2c1c(-c1ccc3ccccc3c1)nn2C(C)(C)C [Compound 7]', 'log10(GI50)', 3.08),
  ('CC(C)(C)n1nc(-c2ccc3ccccc3c2)c2c(N)ncnc21 [Compound 5]', 'log10(GI50)', 2.78),
  ('C=CC(=O)Nc1ncnc2c1c(-c1ccccc1)nn2C(C)(C)C [Compound 2]', 'log10(GI50)', 3.04),
  ('C=CC(=O)N(C(=O)C=C)c1ncnc2c1c(-c1ccccc1)nn2C(C)(C)C [Compound 3]', 'log10(GI50)', 3.43),
  ('CC(C)(C)n1nc(-c2ccccc2)c2c(N)ncnc21 [Compound 1]', 'log10(GI50)', 3.87);
